Here the recorded Measured concentration is given for each entry.
Details: plasma; Short term stability 8 h at room temperature; 500.00 ng/mL (MQC)
readout: Measured concentration

C=C1CC[C@@H]2[C@](C)(CO)[C@H](O)CC[C@@]2(C)[C@@H]1CCC1=CCOC1=O [AP6, 14-deoxyandrographolide]
452.37 ± 10.16 ng/mL
C=C1CC[C@@H]2[C@](C)(CO)[C@H](O)CC[C@@]2(C)[C@@H]1C/C=C1/C(=O)OC[C@H]1O [AP1, andrographolide]
445.29 ± 9.56 ng/mL
C=C1CC[C@@H]2[C@](C)(CO)[C@H](O)CC[C@@]2(C)[C@@H]1/C=C/C1=CCOC1=O [AP3, 14-deoxy-11, 12-didehydroandrographolide]
472.00 ± 19.37 ng/mL
C=C1CC[C@@H]2[C@](C)(CO[C@@H]3O[C@H](CO)[C@@H](O)[C@H](O)[C@H]3O)CCC[C@@]2(C)[C@@H]1CCC1=CCOC1=O [AP4, neoandrographolide]
474.29 ± 22.98 ng/mL

---

Assay: Stability in urine under different storage conditions
Type: physicochemical, human
Conditions: Post preparative stability 24 h at autosampler, 900.00 ng/mL (HQC)
readout: Measured concentration (ng/mL)

C=C1CC[C@@H]2[C@](C)(CO[C@@H]3O[C@H](CO)[C@@H](O)[C@H](O)[C@H]3O)CCC[C@@]2(C)[C@@H]1CCC1=CCOC1=O [AP4, neoandrographolide]
916.25
C=C1CC[C@@H]2[C@](C)(CO)[C@H](O)CC[C@@]2(C)[C@@H]1/C=C/C1=CCOC1=O [AP3, 14-deoxy-11, 12-didehydroandrographolide]
902.47
C=C1CC[C@@H]2[C@](C)(CO)[C@H](O)CC[C@@]2(C)[C@@H]1CCC1=CCOC1=O [AP6, 14-deoxyandrographolide]
911.80
C=C1CC[C@@H]2[C@](C)(CO)[C@H](O)CC[C@@]2(C)[C@@H]1C/C=C1/C(=O)OC[C@H]1O [AP1, andrographolide]
896.96

---

Conditions: plasma; Short term stability 8 h at room temperature; 900.00 ng/mL (HQC)
readout: Measured concentration (ng/mL)

C=C1CC[C@@H]2[C@](C)(CO[C@@H]3O[C@H](CO)[C@@H](O)[C@H](O)[C@H]3O)CCC[C@@]2(C)[C@@H]1CCC1=CCOC1=O [AP4, neoandrographolide]
890.60
C=C1CC[C@@H]2[C@](C)(CO)[C@H](O)CC[C@@]2(C)[C@@H]1/C=C/C1=CCOC1=O [AP3, 14-deoxy-11, 12-didehydroandrographolide]
887.83
C=C1CC[C@@H]2[C@](C)(CO)[C@H](O)CC[C@@]2(C)[C@@H]1C/C=C1/C(=O)OC[C@H]1O [AP1, andrographolide]
888.87
C=C1CC[C@@H]2[C@](C)(CO)[C@H](O)CC[C@@]2(C)[C@@H]1CCC1=CCOC1=O [AP6, 14-deoxyandrographolide]
906.41

---

Here the recorded AUC(0-t) is given for each entry.
Experiment: Clinical pharmacokinetics in plasma after single oral administration of A. paniculata extract
Format: in vivo, human
Conditions: human; parent compound in plasma; n = 4; single oral dose of extract (60 mg andrographolide); mean ± SD
readout: AUC(0-t) (ng·h/mL)

C=C1CC[C@@H]2[C@](C)(CO)[C@H](O)CC[C@@]2(C)[C@@H]1CCC1=CCOC1=O [AP6, 14-deoxyandrographolide]
10.2
C=C1CC[C@@H]2[C@](C)(CO[C@@H]3O[C@H](CO)[C@@H](O)[C@H](O)[C@H]3O)CCC[C@@]2(C)[C@@H]1CCC1=CCOC1=O [AP4, neoandrographolide]
44.1
C=C1CC[C@@H]2[C@](C)(CO)[C@H](O)CC[C@@]2(C)[C@@H]1C/C=C1/C(=O)OC[C@H]1O [AP1, andrographolide]
210
C=C1CC[C@@H]2[C@](C)(CO)[C@H](O)CC[C@@]2(C)[C@@H]1/C=C/C1=CCOC1=O [AP3, 14-deoxy-11, 12-didehydroandrographolide]
309

The reported numbers originate from paper PMC9924185.
